- PROCEDURE DETAILS: Metabolic stability, pooled human liver microsome incubations
- STATED CONDITIONS: human, microsomes, pH 7.4, Intrinsic clearance, CLint, pHLM, alternative microsomal scaling factor 32 mg microsomal protein per gram liver
Reported CLint scaled at 0.5 µM is given for each of the following molecules.
ASSAY METRIC: CLint scaled at 0.5 µM (mL/min/kg)

>>> df
                                    molecule            assay_metric  quantitative_readout
 0  COC(=O)[C@@H](NC(=O)c1nn(CCCCF)c2ccccc12)C(C)(C)C [(S)-4F-MDMB-BINACA (4)]  CLint scaled at 0.5 µM                   118
 1  C=CCCCn1cc(C(=O)N[C@H](C(=O)OC)C(C)C)c2ccccc21 [(S)-AMB-4en-PICA (7)]  CLint scaled at 0.5 µM                   194
 2  COC(=O)[C@@H](NC(=O)c1nn(Cc2ccc(F)cc2)c2ccccc12)C(C)(C)C [(S)-MDMB-FUBINACA (6)]  CLint scaled at 0.5 µM                   111
 3  CC(C)[C@H](NC(=O)c1nn(Cc2ccc(F)cc2)c2ccccc12)C(N)=O [(S)-AB-FUBINACA (8)]  CLint scaled at 0.5 µM                    10
 4  C=CCCCn1cc(C(=O)N[C@@H](C(=O)OC)C(C)C)c2ccccc21 [(R)-AMB-4en-PICA (7)]  CLint scaled at 0.5 µM                   286
 5  C=CCCCn1cc(C(=O)N[C@H](C(=O)OC)C(C)(C)C)c2ccccc21 [(S)-MDMB-4en-PICA (12)]  CLint scaled at 0.5 µM                   137
 6  CC(C)[C@H](NC(=O)c1nn(CC2CCCCC2)c2ccccc12)C(N)=O [(S)-AB-[…] (11)]  CLint scaled at 0.5 µM                  42.1
 7  C=CCCCn1nc(C(=O)N[C@H](C(=O)OC)C(C)(C)C)c2ccccc21 [(S)-MDMB-4en-PINACA (5)]  CLint scaled at 0.5 µM                   186
 8  COC(=O)[C@@H](NC(=O)c1nn(CCCCCF)c2ccccc12)C(C)(C)C [(S)-5F-MDMB-PINACA (2)]  CLint scaled at 0.5 µM                   171
 9  C=CCCCn1nc(C(=O)N[C@@H](C(=O)OC)C(C)(C)C)c2ccccc21 [(R)-MDMB-4en-PINACA (5)]  CLint scaled at 0.5 µM                   208
10  COC(=O)[C@@H](NC(=O)c1cn(CCCCCF)c2ccccc12)C(C)(C)C [(S)-5F-MDMB-PICA (3)]  CLint scaled at 0.5 µM                   128
11  COC(=O)[C@H](NC(=O)c1nn(Cc2ccc(F)cc2)c2ccccc12)C(C)(C)C [(R)-MDMB-FUBINACA (6)]  CLint scaled at 0.5 µM                  58.2
12  COC(=O)[C@@H](NC(=O)c1nn(CCCCCF)c2ccccc12)C(C)C [(S)-5F-AMB-PINACA (10)]  CLint scaled at 0.5 µM                  1230
13  COC(=O)[C@@H](NC(=O)c1cn(CC2CCCCC2)c2ccccc12)C(C)C [(S)-AMB-CHMICA (9)]  CLint scaled at 0.5 µM                   282
14  COC(=O)[C@@H](NC(=O)c1nn(Cc2ccc(F)cc2)c2ccccc12)C(C)C [(S)-AMB-FUBINACA (1)]  CLint scaled at 0.5 µM                  1790

Ref: paper PMC7961380
